System: Sonic hedgehog protein (Shh)
Test: small-molecule binders of Shh protein, primary screen, biochemical, small-molecule microarray, 635/667 nm fluorescence (AID 1151);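 further: Shh protein binding to compounds spotted on small-molecule microarray slides; score combines spot fluorescence intensity with signal-to-noise across triplicate slides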
Conditions: small-molecule microarray binding, 635 nm fluorescence; higher = more signal
MEASURED_ATTRIBUTE: composite z-score
Lab note: record just the number, no unit beside it.

[[record]]
compound = "CN1C(=O)C2C=CC(C(O)c3ccc(-c4ccccc4)s3)N(Nc3ccccc3)C2C1=O (configuration not stated)"
readout_value = -0.212

[[record]]
compound = "COc1cccc(OC)c1C(=O)O[C@H]1[C@@H]2OC(=O)[C@H](Cc3cccc(Br)c3)C/C=C/C[C@@H](Cc3cccc(Br)c3)C(=O)O[C@H]2[C@@H](OC)O[C@@H]1CO"
readout_value = 1.23

[[record]]
compound = "NCCCC[C@@H]1NC(=O)[C@H]2C[C@@H](C(=O)NCc3ccc(F)cc3)[C@@H](c3cccc(OCCO)c3)N2C1=O"
readout_value = 2.07

[[record]]
compound = "COCCCNC(=O)[C@@]1(Sc2ccc(C)cc2)CC(=O)N(C2CCCCC2)[C@@H]1c1ccc(CO)cc1I"
readout_value = 0.993

[[record]]
compound = "CC(C)CNC(=O)[C@@]1(C)c2ccccc2C(=O)N(Cc2cc(F)cc(C(F)(F)F)c2)[C@H]1c1ccc(CO)cc1"
readout_value = 1.23


### Prompt Give recorded composite z-score with Sonic hedgehog protein (Shh) for the following compound: "COC(=O)[C@@]1(CCC(=O)OC(C)(C)C)N=C(c2ccc(OCCCO)cc2)O[C@H]1c1ccccc1CN=[N+]=[N-]"
### Response 0.339

### Prompt # returns recorded composite z-score (system: Sonic hedgehog protein (Shh)) for COc1cc2c(cc1O)C(c1ccc(CN3CCCC3)cc1)N(Cc1ccc([N+](=O)[O-])o1)CC2 (configuration not stated)
### Response -0.0987

----------
Molecular target: Neurogenic locus notch homolog protein 3 (Homo sapiens) (UniProt Q9UM47)
Sequence (Q9UM47 whole entry, looked up): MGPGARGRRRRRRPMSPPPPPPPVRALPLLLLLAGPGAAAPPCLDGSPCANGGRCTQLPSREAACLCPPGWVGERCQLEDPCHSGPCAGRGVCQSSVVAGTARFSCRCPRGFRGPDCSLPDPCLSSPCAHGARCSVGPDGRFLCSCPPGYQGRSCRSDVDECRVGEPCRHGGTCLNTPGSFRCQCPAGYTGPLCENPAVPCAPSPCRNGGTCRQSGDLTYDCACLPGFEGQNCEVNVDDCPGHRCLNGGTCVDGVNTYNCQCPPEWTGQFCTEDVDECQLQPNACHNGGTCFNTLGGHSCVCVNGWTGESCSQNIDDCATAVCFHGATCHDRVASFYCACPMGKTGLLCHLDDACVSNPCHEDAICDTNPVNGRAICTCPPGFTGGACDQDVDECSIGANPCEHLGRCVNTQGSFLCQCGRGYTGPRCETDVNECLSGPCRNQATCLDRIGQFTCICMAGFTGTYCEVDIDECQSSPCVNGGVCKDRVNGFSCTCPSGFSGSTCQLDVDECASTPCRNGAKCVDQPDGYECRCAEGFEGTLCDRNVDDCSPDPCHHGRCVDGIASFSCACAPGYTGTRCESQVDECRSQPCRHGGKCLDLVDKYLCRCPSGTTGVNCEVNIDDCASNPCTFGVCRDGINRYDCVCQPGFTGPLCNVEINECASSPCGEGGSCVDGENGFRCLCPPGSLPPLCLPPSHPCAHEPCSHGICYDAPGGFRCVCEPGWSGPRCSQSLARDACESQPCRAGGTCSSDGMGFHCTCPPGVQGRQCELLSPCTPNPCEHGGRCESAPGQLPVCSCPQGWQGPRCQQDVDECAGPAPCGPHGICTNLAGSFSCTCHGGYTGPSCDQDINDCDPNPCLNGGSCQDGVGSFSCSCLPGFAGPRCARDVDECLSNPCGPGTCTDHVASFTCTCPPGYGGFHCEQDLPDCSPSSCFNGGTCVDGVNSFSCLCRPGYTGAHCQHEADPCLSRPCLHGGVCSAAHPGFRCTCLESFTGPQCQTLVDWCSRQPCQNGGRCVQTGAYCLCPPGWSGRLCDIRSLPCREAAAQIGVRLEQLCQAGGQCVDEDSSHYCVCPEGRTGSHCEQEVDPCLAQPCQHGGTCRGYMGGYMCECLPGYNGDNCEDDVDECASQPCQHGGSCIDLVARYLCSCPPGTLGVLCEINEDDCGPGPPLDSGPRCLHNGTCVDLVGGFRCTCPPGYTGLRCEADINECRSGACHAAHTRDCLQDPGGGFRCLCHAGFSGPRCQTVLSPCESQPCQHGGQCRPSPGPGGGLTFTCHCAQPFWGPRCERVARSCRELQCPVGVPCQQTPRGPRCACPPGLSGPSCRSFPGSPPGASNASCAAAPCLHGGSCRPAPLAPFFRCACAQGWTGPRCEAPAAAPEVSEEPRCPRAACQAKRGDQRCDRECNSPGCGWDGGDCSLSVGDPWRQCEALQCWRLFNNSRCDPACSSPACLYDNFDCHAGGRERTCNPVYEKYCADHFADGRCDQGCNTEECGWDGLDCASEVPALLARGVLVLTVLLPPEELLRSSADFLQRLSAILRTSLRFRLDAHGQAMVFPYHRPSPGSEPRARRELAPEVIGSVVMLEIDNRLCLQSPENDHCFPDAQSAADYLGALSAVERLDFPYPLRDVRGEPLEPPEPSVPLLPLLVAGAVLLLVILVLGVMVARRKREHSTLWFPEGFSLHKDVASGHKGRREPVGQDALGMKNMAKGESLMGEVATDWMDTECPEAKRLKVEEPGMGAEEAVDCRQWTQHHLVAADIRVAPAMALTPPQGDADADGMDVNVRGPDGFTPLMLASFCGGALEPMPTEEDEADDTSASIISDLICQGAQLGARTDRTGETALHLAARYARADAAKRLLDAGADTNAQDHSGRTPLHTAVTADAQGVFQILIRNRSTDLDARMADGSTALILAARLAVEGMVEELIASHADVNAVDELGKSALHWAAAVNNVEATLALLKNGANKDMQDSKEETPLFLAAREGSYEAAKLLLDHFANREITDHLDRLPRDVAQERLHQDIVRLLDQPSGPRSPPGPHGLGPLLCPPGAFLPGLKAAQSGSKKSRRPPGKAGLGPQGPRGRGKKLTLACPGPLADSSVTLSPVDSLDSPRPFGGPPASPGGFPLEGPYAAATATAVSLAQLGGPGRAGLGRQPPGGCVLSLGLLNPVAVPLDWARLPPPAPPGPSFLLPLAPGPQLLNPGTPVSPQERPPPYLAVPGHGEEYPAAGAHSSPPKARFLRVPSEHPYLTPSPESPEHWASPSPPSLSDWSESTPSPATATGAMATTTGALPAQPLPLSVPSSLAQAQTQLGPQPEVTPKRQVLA
Test: NOTCH3 binders on small-molecule microarray, primary screen, biochemical, 635/667 nm fluorescence (AID 1096)
Conditions: NOTCH3 binding, 635 nm fluorescence, higher = more signal
Listed below: composite z-score values for each entry.
Answer with a number only.

# example entries with known answers
[[record]]
molecule = "CCOC(=O)C[C@H]1[C@H](OC(=O)Cc2ccc3c(c2)OCO3)[C@@H](NC(=O)c2ccccc2)c2cc(OCCCO)ccc2N1C(=O)Cc1ccc(OC)cc1"
measured_attribute = "composite z-score"
readout_value = 0.206

[[record]]
molecule = "COC(=O)[C@@]1(Cc2ccccc2)[C@@H]2[C@@H](CC(=O)[C@H]2CC(=O)C(=O)N(C)C)CN1C(=O)c1ccccc1"
measured_attribute = "composite z-score"
readout_value = -0.18

[[record]]
molecule = "COc1ccccc1CN1C(=O)c2ccccc2[C@](Cc2ccccc2I)(C(=O)NCCCN(C)C)[C@@H]1c1ccc(CO)cc1"
measured_attribute = "composite z-score"
readout_value = 0.591


### Prompt Find the recorded composite z-score belonging to "COCCOC(=O)N1C(=O)[C@@]2(c3cc(C#CC4=CCCCC4)ccc31)[C@H](C(=O)N1CCN(c3ncccn3)CC1)[C@H]1C(=O)O[C@H](c3ccccc3)[C@H](c3ccccc3)N1[C@@H]2c1ccccc1OCCO" and report it.
### Response 1.04

### Prompt What value of measured composite z-score is listed for "COCCOC(=O)N1C(=O)[C@@]2(c3cc(C#CCC(C(=O)OC)C(=O)OC)ccc31)[C@H](C(=O)N1CCCCCCC1)[C@H]1C(=O)O[C@H](c3ccccc3)[C@H](c3ccccc3)N1[C@@H]2c1ccccc1OCCO" ?
### Response 1.14

### Prompt Bench note: what composite z-score did "Cc1c(-c2ccc(-c3ccc(Cl)c(Cl)c3)o2)nc(-c2ccccc2)c2c1CO[Si]2(C(C)C)C(C)C" show?
### Response -0.0183

### Prompt Value lookup for composite z-score; key = O=C1C2C=CC(C(O)c3cccc(O)c3)N(Nc3ccccc3F)C2C(=O)N1c1ccccc1 (stereo not given)
### Response 0.552

### Prompt What composite z-score value was documented for this molecule, "CC(C)[C@@H](C(=O)O)n1cc(-c2ccccc2)nn1" ?
### Response 0.938

### Prompt Any idea what composite z-score was measured for "C[N+](C)(C)CCCCCCNC(=O)[C@H]1C[C@H]2C(=O)NCC(=O)N2[C@H]1c1cccc(OCCO)c1" ?
### Response 1.12
